src = PubChem BioAssay (NCI)

Tested on: SNB-19 CNS
Assay: NCI tumour cell line growth inhibition, 48 h

>  <chemical-string>
CCCCCCc1nn2c(-c3ccc(C)cc3)nnc2s1

>  <tested-target>
SNB-19 CNS

>  <TGI>
> 100 µM

$$$$
>  <chemical-string>
CC/C(=N\Nc1nc2ccccc2n1C)c1ccccn1

>  <tested-target>
SNB-19 CNS

>  <TGI>
14.4 µM

$$$$
>  <chemical-string>
CCOc1ccccc1NC(=O)C(=O)CC(=O)C1=C(C)Nc2ccccc2S1

>  <tested-target>
SNB-19 CNS

>  <TGI>
> 100 µM

$$$$
>  <chemical-string>
CN(c1c(Cl)cccc1Cl)S(=O)(=O)c1ccccc1[N+](=O)[O-]

>  <tested-target>
SNB-19 CNS

>  <TGI>
> 100 µM

$$$$
>  <chemical-string>
C1CNCCN2CCCNCCN(C1)CC2

>  <tested-target>
SNB-19 CNS

>  <TGI>
> 100 µM

$$$$
>  <chemical-string>
COc1cc2c(cc1C)NC(=O)/C2=C/c1c(Cl)[nH]c2cc(C)c(OC)cc12

>  <tested-target>
SNB-19 CNS

>  <TGI>
20.4 µM

$$$$

###

Test system: HCC-2998 colon
Test: NCI tumour cell line growth inhibition, 48 h

>  <compound>
Cc1ccnc(NS(=O)(=O)c2ccc(NC(=O)c3ccc4nc5ccccc5c(Nc5ccc(S(=O)(=O)Nc6nccc(C)n6)cc5)c4c3)cc2)n1

>  <units-text>
µM

>  <comparison-operator>
>

>  <TGI>
100

$$$$
>  <compound>
C/C(Cl)=N\OC(=O)Nc1ccc([N+](=O)[O-])cc1

>  <units-text>
µM

>  <comparison-operator>
=

>  <TGI>
29.8

$$$$
>  <compound>
NC(=S)N/N=C(/CC(=O)c1ccc([N+](=O)[O-])cc1)C(=O)Nc1ncc([N+](=O)[O-])s1

>  <units-text>
µM

>  <comparison-operator>
>

>  <TGI>
100

$$$$
>  <compound>
CN(c1c(Cl)cccc1Cl)S(=O)(=O)c1ccccc1[N+](=O)[O-]

>  <units-text>
µM

>  <comparison-operator>
>

>  <TGI>
100

$$$$
>  <compound>
O=C(N/N=C(/COc1cccc(Cl)c1)N=Cc1ccncc1)c1ccncc1

>  <units-text>
µM

>  <comparison-operator>
>

>  <TGI>
100

$$$$
>  <compound>
O=[N+]([O-])c1cc2n[nH]nc2c2nonc12

>  <units-text>
µM

>  <comparison-operator>
=

>  <TGI>
38.7

$$$$
>  <compound>
COc1cc(N=C(N)N=C(N)N)c2ncccc2c1

>  <units-text>
µM

>  <comparison-operator>
>

>  <TGI>
100

$$$$
>  <compound>
C=CCn1c2ccccc2c2c(C)c3cnccc3c(C)c21

>  <units-text>
µM

>  <comparison-operator>
=

>  <TGI>
104

$$$$
>  <compound>
O=C(ON=c1c2ccccc2ccc2ccccc12)c1cc([N+](=O)[O-])cc([N+](=O)[O-])c1

>  <units-text>
µM

>  <comparison-operator>
>

>  <TGI>
100

$$$$
>  <compound>
COc1ccc(/C=C2/C(=O)N(C(=O)c3ccccc3O)N=C2C)cc1OC

>  <units-text>
µM

>  <comparison-operator>
>

>  <TGI>
100

$$$$
>  <compound>
Cc1cc(C)nc(NS(=O)(=O)c2ccc(Nc3c4ccccc4nc4c(C(=O)NCCN(C)C)ccc(Cl)c34)cc2)n1

>  <units-text>
µM

>  <comparison-operator>
=

>  <TGI>
26.7

$$$$
>  <compound>
COc1ccc2c(=O)c([Se]c3coc4cc(OC)ccc4c3=O)coc2c1

>  <units-text>
µM

>  <comparison-operator>
>

>  <TGI>
100

$$$$
>  <compound>
CCSC1(SCC)CCN(C=NC(C)(C)C)C1

>  <units-text>
µM

>  <comparison-operator>
>

>  <TGI>
100

$$$$
>  <compound>
C[N+](C)(C)CCOP(=O)(O)OP(=O)([O-])OCC1CCC(n2ccc(N)nc2=O)O1 (stereo not given)

>  <units-text>
µM

>  <comparison-operator>
>

>  <TGI>
100

$$$$
>  <compound>
CCOc1ccc(Cc2nccc3cc(OCC)c(OCC)cc23)cc1OCC

>  <units-text>
µM

>  <comparison-operator>
=

>  <TGI>
21.3

$$$$
>  <compound>
Cc1cccc(CN(C)c2ccc(CO)c(Cl)c2)c1

>  <units-text>
µM

>  <comparison-operator>
=

>  <TGI>
52.9

$$$$
>  <compound>
Nc1[nH]c(=O)nc2sc3c(c12)CCCC3

>  <units-text>
µM

>  <comparison-operator>
>

>  <TGI>
100

$$$$
>  <compound>
O=C1NC(=NCC(CO)c2ccccc2)S/C1=C\c1ccc2ncccc2c1 (stereo not given)

>  <units-text>
µM

>  <comparison-operator>
>

>  <TGI>
25

$$$$
>  <compound>
COc1cc2c(cc1OCCCCNC(=O)c1cc3ccccc3[nH]1)N=CC1CCCN1C2=O (stereo not given)

>  <units-text>
µM

>  <comparison-operator>
=

>  <TGI>
45.1

$$$$
>  <compound>
Cc1ccc2nc3c(C(=O)NCCN(C)C)cccc3cc2c1

>  <units-text>
µM

>  <comparison-operator>
=

>  <TGI>
14.8

$$$$
